# TESTED SYSTEM: T1, AtTCP10-DBD DRH RR mutant (UniProt O82277 1-87, D31A;R32A;H33A;R46A;R48A)
# T1 sequence: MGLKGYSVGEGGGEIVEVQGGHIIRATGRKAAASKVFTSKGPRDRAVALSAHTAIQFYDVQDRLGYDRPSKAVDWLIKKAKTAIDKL
# ASSAY METHOD TEXT: ITC
PROPERTY LABEL: Kd (nM)
The answer is to be given in nM; state only the numeric part.

Request: Query Kd for three-site class II DNA (dsDNA) DNA 1: ATGTGGTCCCCACT DNA 2: TAGTGGGGACCACA
Response: 1620
